Hello, the source for this data is patent US20230242651A1, in case you need it.

Target: T1, human interleukin-23 receptor (IL23R) (human, UniProt Q5VWK5 24-355, limits assumed)
T1 construct: also called human IL23R
T1 sequence (looked up): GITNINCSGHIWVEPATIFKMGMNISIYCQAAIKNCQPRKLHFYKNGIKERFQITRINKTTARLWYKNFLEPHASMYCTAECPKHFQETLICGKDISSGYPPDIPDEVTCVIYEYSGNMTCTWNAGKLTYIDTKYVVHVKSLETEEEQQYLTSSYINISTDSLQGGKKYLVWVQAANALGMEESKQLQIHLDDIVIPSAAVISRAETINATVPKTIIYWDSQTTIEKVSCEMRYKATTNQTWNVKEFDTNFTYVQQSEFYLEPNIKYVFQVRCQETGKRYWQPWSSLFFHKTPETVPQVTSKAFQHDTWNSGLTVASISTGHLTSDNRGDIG
Assay: SPR, scFv
result-type: koff (s⁻¹)
Output spec: scalar in s⁻¹, unitless text.

binder	reported
Vκ3/VH1B consensus λ-capped, human IL23R specific scFv (scFv, scFv VL-linker-VH, made in E. coli; also called Vκ3VH1B capped) scFv: DIVLTQSPATLSLSPGERATLSCQASENIYSFLAWYQQKPGQAPRLLIYSASKLAAGVPARFSGSGSGTDFTLTISSLEPEDFAVYYCQQTNRYSNPDIYNVFGGGTKLTVLGGGGGSGGGGSGGGGSGGGGSQVQLVQSGAEVKKPGASVKVSCKASGIDFNSNYYMCWVRQAPGQGLEWMGCIYVGSHVNTYYANWAKGRVTMTRDTSISTAYMELSSLRSEDTAVYYCATSGSSVLYFKFWGQGTLVTVSS	0.000506

[in] Given Vκ1/VH5 consensus (uncapped), human IL23R specific scFv (scFv, scFv VL-linker-VH, made in E. coli; Vκ framework IV (uncapped, full consensus); also called Vκ1VH5 uncapped) scFv: DIQMTQSPSSLSASVGDRVTITCQASENIYSFLAWYQQKPGKAPKLLIYSASKLAAGVPSRFSGSGSGTDFTLTISSLQPEDFATYYCQQTNRYSNPDIYNVFGQGTKVEIKRGGGGSGGGGSGGGGSGGGGSEVQLVQSGAEVKKPGESLKISCKGSGIDFNSNYYMCWVRQMPGKGLEWMGCIYVGSHVNTYYANWAKGQVTISADKSISTAYLQWSSLKASDTAMYYCATSGSSVLYFKFWGQGTLVTVSS , state its recorded koff.
[out] 0.000538
